Cited source for all entries: BindingDB's records for patent US12286435

# targetSystem: Bromodomain-containing protein 4 [348-457] (Human, UniProt O60885)
# Construct: 348-457
# assayComment: Determination of the value of binding affinity constant (KO between the compound and BRD4 BD2 protein
reportedMetric: Ki

> print(dat)
                                   molecule  reportedmetric  observed
1  Cc1nnn2c1-c1ccc(C3=CCNCC3)cc1C(Nc1c(F)cccc1Cl)CC2 (stereo unspecified) [US12286435, Code LC198]              Ki    153 nM
2  CCCCN1CC=C(c2ccc3c(c2)C(Nc2cccc(Cl)c2)CCn2nnc(C)c2-3)CC1 (stereo unspecified) [US12286435, Code BH108]              Ki   24.3 nM
3  COC(=O)Cc1ccccc1NC1CCn2nncc2-c2ccc(-c3cnn(C)c3)cc21 (stereo unspecified) [US12286435, Code LB175]              Ki   18.6 nM
4  COC(=O)Cc1ccc(NC2CCn3nnc(C)c3-c3ccc(-c4cnn(C)c4)cc32)cc1 (stereo unspecified) [US12286435, Code LB38]              Ki   9.29 nM
5  Cc1nnn2c1-c1ccc(-c3cnn(C)c3)cc1C(Nc1cccc(CCO)c1)CC2 (stereo unspecified) [US12286435, Code LB71]              Ki   30.5 nM
6  Cc1nnn2c1-c1ccc(C3=CCOCC3)cc1C(Nc1cccc(Cl)c1)CC2 (stereo unspecified) [US12286435, Code LD31]              Ki   17.1 nM
